kon reference
subject.of.test: SARS-COV-2 RBD extracellular domain expressed with a C-terminal mouse IgG2a Fc (SARS-CoV-2)
assay.details: Biacore SPR, mAb captured on anti-hFc, 37 C
Give your result in M⁻¹ s⁻¹ as a bare value.

Some solved cases for reference:
q: Would you mind telling me what kon value was observed for mAb14281 (antibody, V domains shown) VH: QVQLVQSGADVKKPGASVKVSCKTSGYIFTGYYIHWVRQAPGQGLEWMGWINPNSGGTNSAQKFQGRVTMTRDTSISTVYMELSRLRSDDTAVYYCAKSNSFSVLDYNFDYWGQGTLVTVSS VL: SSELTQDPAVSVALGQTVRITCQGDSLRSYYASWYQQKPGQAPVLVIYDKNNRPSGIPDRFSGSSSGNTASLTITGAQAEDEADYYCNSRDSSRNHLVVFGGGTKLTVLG ?
a: 1.34e+06

q: Would you kindly repeat that for mAb14234 (antibody, V domains shown) VH: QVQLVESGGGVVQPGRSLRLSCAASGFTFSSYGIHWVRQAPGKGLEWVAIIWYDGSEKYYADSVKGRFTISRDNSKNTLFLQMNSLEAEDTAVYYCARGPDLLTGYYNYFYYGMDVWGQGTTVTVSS VL: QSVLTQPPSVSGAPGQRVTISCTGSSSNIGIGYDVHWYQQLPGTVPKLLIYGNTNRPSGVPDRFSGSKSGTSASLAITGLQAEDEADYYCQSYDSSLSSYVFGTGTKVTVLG ?
a: 980000

Please turn your attention to the following entry.
q: Would you mind telling me what kon value was observed for mAb14283 (antibody, V domains shown) VH: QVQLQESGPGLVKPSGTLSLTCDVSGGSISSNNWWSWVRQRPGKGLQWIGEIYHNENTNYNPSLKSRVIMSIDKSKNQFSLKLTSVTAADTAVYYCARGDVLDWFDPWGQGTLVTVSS VL: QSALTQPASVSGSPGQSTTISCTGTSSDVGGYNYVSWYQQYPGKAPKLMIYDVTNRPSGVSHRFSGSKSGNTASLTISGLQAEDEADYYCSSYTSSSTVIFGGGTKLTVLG ?
a: 1.52e+06
